Source listed as patent US7777041B2.

Target: human CCR2b receptor (Homo sapiens)
Sequence (P41597 1-360 isoform P41597-2): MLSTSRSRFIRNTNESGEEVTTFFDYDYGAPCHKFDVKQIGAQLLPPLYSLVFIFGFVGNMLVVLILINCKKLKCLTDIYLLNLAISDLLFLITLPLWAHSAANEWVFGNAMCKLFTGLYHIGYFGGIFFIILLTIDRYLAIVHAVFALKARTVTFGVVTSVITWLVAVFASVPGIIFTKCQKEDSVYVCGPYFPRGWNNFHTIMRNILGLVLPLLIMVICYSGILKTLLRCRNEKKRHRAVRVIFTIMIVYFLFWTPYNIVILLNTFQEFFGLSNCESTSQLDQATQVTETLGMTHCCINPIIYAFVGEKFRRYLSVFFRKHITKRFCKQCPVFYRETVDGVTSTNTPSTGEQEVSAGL
Test: Inhibitory activity on cells expressing the human CCR2b receptor
Format: cell-based
Details: read-out: IC50 of inhibitory activity on cells expressing the human CCR2b receptor
ASSAY_ENDPOINT: IC50 (µM)

INSERT INTO assay_data (chem_smiles, tested_on, recorded_value) VALUES
  ('CCOc1ccc(OCC)c(-c2csc(NC(=O)c3ccc(OCCN(CC)CC)cc3)n2)c1', 'human CCR2b receptor (Homo sapiens)', 0.081),
  ('CCOc1ccc(C2CCCCC2)cc1-c1csc(NC(=O)c2ccc(C(=O)N3CCC(=O)CC3)cc2)n1', 'human CCR2b receptor (Homo sapiens)', 0.088),
  ('CCCc1ccc(OC)c(-c2csc(NC(=O)c3ccc(C(=O)N4CCC(N5CC[C@@H](N(C)C)C5)CC4)cc3)n2)c1', 'human CCR2b receptor (Homo sapiens)', 0.093);
